The measurements presented in this section are drawn from PubChem BioAssay AID1963978.

System: 616215-338-R-J1-PDC spheroids with HUVEC/MSC, viability;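 further: spheroids exposed to agents for seven days before the viability read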
Assay: Anticancer human tumor 616215-338-R-J1-PDC patient-derived colon adenocarcinoma cell line growth inhibition [PI3K]
Conditions: curve of first compound; second compound 0.00316 µM
From the text: Combinatorial screen of targeted agents with the PI3K inhibitors inavolisib, alpelisib, duvelisib, and copanlisib in multi-cell type tumor spheroids A high-throughput screen of multi-cell type tumor spheroids was designed to identify active combinations of targeted small molecules and PI3K pathway inhibitors. […] Compounds. […] If the clinical Cmax for an agent had not been determined, the highest concentration tested was 10 microM. […]
pIC50: −log10 of the molar value.
MEASURE: pIC50

| COMPOUND | TEST RESULT |
| --- | --- |
| CC(C)n1nc(-c2ccc3oc(N)nc3c2)c2c(N)ncnc21 + CC(Nc1ccc2c(c1)OCCn1cc(N3C(=O)OCC3C(F)F)nc1-2)C(N)=O | < 7.00 |
| C#Cc1c(F)ccc2cc(O)cc(-c3ncc4c(N5CC6CCC(C5)N6)nc(OCC56CCCN5CC(F)C6)nc4c3F)c12 (stereo not given) + CC(Nc1ccc2c(c1)OCCn1cc(N3C(=O)OCC3C(F)F)nc1-2)C(N)=O | < 5.00 |
| C[C@@H](NC(=O)c1ncnc(N)c1Cl)c1ncc(C(=O)Nc2cc(C(F)(F)F)c(Cl)cn2)s1 + COc1c(OCCCN2CCOCC2)ccc2c3n(c(=NC(=O)c4cnc(N)nc4)nc12)CCN3 | < 5.00 |
| CCN1CCN(Cc2ccc(Nc3ncc(F)c(-c4cc(F)c5nc(C)n(C(C)C)c5c4)n3)nc2)CC1 + CC(Nc1ccc2c(c1)OCCn1cc(N3C(=O)OCC3C(F)F)nc1-2)C(N)=O | < 6.00 |
| CC(C)NCC(C(=O)N1CCN(c2ncnc3c2C(C)CC3O)CC1)c1ccc(Cl)cc1 (stereo not given) + COc1c(OCCCN2CCOCC2)ccc2c3n(c(=NC(=O)c4cnc(N)nc4)nc12)CCN3 | 5.33 |
